Data credit: the Human Domainome abundance scans (Beltran et al. 2025)

B1: CD2-associated protein, residues 271 to 331; numbered along this chain, Q9Y5K6 (parent)
chain: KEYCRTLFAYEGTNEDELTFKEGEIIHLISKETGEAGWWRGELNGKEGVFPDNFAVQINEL

Variants of: B1
assay comment: abundance fitness (aPCA) (normalised: wild type 0, dead -1); higher = more abundant; growth selection in yeast, the domain comes from the species named
condition description: Homo sapiens
measured property: abundance fitness
The answer should be written as a number, with no unit following it.

Solved entries (count: 2):
- mutation code: "K21R"
  test value: -0.064
- mutation code: "G48Y"
  test value: -1.18

I am curious: what abundance fitness value has been reported for `E42H` ? -0.419

// lookup abundance fitness for `G37W` -1.08

What measured abundance fitness goes with `L7K` ? -0.174

Give the measured abundance fitness of `I25S` . -0.448

Record request: abundance fitness value, item `K31C` -0.562

Look at this variant and give its reported abundance fitness. `G41Q` -0.657
